- System: U2OS
- ASSAY PROCEDURE: Multiplex assay against U2OS
- Assay type: toxicity, cell-based
- DETAILS: human, 24 h, 1 µM, compound concentration 1 uM, replicate 2
RESULT TYPE: Population Mitochondria Different-Phenotype (%)

• CN1CCN(Cc2ccc(Nc3ncc(Cl)c(Nc4ccccc4S(=O)(=O)N(C)C)n3)cc2)CC1 = 36%
• CNC(=O)Nc1ccc2c(c1)[C@@]1(CC2)OC(=O)N(CC(=O)N(Cc2ccc(F)cc2)[C@@H](C)C(F)(F)F)C1=O = 18%
• Cc1ccc2c(c1)c1c(n2CCc2ccc(C)nc2)CCN(C)C1 [LATREPIRDINE] = 27%
• O=c1cc(N2CCOCC2)oc2c(-c3cccc4c3sc3ccccc34)cccc12 = 9%
